Target chain: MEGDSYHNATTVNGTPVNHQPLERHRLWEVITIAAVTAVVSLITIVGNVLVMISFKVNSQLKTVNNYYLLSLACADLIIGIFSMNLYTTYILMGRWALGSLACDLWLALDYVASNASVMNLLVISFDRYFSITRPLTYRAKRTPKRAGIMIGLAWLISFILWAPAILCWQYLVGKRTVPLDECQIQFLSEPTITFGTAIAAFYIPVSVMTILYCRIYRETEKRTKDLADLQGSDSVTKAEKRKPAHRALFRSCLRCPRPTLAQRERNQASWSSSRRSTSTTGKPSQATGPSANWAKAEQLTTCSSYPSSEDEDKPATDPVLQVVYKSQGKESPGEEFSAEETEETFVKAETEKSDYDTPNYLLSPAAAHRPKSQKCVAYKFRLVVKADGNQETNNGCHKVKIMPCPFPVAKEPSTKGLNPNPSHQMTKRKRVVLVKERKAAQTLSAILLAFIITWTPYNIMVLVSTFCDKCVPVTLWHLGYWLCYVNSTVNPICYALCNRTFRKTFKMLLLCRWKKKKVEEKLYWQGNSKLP
measure: Kd

The compound identified as "CCN1CCN(CCN2c3ccccc3Cc3ccccc32)CC1" registered its Kd at 613 nM

====

measure: pKd
Entry type: numeric. Quantity: pKd, the -log10 of concentration in molar units.

For "CN1CCN(CCN2c3ccccc3Cc3ccccc32)CC1" on M3 (Homo sapiens, UniProt P20309), measured pKd was 6.15

Field pKd (M3 (Homo sapiens, UniProt P20309)), entry "CCN1CCN(CCN2c3ccccc3Cc3ccccc32)CC1" : 5.60

====

Would you kindly list pKd for each of these compounds?
Target chain: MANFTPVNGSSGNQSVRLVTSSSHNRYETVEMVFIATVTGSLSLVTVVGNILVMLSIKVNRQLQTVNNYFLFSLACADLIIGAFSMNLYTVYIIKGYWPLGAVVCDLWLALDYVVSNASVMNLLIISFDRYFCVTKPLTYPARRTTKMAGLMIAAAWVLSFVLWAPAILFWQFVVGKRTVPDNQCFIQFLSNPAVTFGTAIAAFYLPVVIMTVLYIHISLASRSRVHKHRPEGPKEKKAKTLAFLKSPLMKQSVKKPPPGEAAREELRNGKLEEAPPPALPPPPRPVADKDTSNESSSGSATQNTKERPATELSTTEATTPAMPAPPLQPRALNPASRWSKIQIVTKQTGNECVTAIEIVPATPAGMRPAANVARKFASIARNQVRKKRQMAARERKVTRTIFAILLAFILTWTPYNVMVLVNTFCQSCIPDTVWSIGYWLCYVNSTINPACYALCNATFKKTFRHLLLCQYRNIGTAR
For clarity, pKd is expressed as the negative log10 of concentration in mol/L.

The compound listed as CN1CCN(CCN2c3ccccc3Cc3ccccc32)CC1 [LMD-00076] shows pKd equal to 5.96

pKd measured on CCN1CCN(CCN2c3ccccc3Cc3ccccc32)CC1 [LMD-00060] = 5.72

====

# tested on: D2 (Homo sapiens)
# Sequence (P14416 whole entry): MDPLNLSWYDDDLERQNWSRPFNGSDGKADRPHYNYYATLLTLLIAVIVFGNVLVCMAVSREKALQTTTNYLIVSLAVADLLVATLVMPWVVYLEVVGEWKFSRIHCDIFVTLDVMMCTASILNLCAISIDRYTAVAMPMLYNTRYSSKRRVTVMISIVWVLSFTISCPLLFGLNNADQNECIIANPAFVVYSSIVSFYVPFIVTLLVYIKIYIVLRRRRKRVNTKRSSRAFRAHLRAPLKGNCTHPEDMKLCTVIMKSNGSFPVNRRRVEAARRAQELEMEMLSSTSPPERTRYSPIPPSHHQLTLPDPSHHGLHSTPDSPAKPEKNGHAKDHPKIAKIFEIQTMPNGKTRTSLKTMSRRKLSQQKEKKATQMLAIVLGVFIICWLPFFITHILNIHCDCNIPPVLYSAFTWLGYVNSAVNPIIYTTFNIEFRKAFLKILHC
# test details: In vitro receptor binding, D2
# applied conditions: read-out: In vitro testing data (receptor binding affinity), D2
For each record, write down the corresponding pKd.
Would you please state pKd, meaning minus log10 of the concentration in mol/L, as a bare number?

Please fill in: pKd reported for "CCN1CCN(CCN2c3ccccc3Cc3ccccc32)CC1" = 6.20

Documented pKd of "CN1CCN(CCN2c3ccccc3Cc3ccccc32)CC1" : 6.16

====

measure: pKd
Reminder that pKd means the negative base-10 logarithm of the concentration expressed in mol/L.

Summary: "CN1CCN(CCN2c3ccccc3Cc3ccccc32)CC1" , 5-HT7 (Homo sapiens, UniProt P34969), pKd = 5.94

// molecule "CCN1CCN(CCN2c3ccccc3Cc3ccccc32)CC1" , assay 5-HT7 (Homo sapiens, UniProt P34969), pKd value: 5.98

====

# tested on: 5-HT2c (Homo sapiens)
# Sequence (P28335 33-458, species assumed): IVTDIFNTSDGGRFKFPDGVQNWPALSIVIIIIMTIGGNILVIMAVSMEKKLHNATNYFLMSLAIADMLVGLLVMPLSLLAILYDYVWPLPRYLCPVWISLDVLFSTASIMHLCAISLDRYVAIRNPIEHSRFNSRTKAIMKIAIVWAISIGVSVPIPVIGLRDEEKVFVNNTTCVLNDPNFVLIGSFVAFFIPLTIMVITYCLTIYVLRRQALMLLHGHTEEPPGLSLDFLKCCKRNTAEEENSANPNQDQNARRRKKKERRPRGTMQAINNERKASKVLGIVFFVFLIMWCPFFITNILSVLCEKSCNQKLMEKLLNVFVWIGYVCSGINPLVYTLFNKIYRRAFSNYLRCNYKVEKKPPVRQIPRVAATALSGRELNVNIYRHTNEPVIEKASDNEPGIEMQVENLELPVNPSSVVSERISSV
measure: Kd (µM)
Use µM as the unit, but write only the number.

Record CCN1CCN(CCN2c3ccccc3Cc3ccccc32)CC1 [LMD-00060] . Reported Kd: 2.74

====

Provide the recorded pKd for the entries that follow.
Give only the number. pKd is defined as minus log10 of concentration in molar units.

Result for CN1CCN(CCN2c3ccccc3Cc3ccccc32)CC1 [LMD-00076] , tested on 5-HT6 (Homo sapiens, UniProt P50406), pKd: 6.19

Form: item CCN1CCN(CCN2c3ccccc3Cc3ccccc32)CC1 [LMD-00060] ; test system 5-HT6 (Homo sapiens, UniProt P50406); pKd: 5.82

====

# tested on: H1 (Homo sapiens, UniProt P35367)
# Sequence (P35367 whole entry): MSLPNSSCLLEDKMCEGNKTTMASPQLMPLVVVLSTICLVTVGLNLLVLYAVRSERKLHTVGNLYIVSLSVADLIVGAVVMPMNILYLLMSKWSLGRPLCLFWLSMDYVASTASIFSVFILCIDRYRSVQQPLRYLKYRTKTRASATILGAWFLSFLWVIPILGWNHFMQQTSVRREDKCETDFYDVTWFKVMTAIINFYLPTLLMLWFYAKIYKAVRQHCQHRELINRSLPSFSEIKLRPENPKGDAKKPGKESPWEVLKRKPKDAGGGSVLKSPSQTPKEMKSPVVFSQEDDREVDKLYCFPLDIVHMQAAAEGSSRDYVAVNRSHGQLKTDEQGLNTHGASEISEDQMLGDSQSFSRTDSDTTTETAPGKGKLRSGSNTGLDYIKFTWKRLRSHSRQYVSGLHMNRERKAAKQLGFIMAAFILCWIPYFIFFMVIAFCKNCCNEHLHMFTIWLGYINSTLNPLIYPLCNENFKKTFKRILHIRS
measure: pKd
// pKd here means minus log10 of the molar concentration (mol/L)

Item "CCN1CCN(CCN2c3ccccc3Cc3ccccc32)CC1" was tested on H1 (Homo sapiens, UniProt P35367); the reported pKd is 6.59

====

pKd: −log10 of the molar value.
measure: pKd

Query "CCN1CCN(CCN2c3ccccc3Cc3ccccc32)CC1" on M2 (Homo sapiens, UniProt P08172); pKd returned: < 5.00
